Recorded IC50 values (Human immunodeficiency virus type 1 reverse transcriptase (Human immunodeficiency virus 1)) are given below.
Respond with the bare value in µM.

Previously resolved entries follow.
Cc1c(O)nc(SCC(C)C)nc1Cc1c(F)cccc1F    0.09
Oc1cc(Cc2ccccc2)nc(SC2CCCC2)n1    1.6
O=c1cc(Cc2c(F)cccc2F)nc(SC2CCCC2)[nH]1    0.08
Cc1c(Cc2c(F)cccc2F)nc(SC(C)C)[nH]c1=O    0.05
CCC(C)Sc1nc(O)cc(Cc2c(Cl)cccc2Cl)n1 (stereo not given)    0.1
CCC(C)Sc1nc(O)cc(Cc2ccccc2[N+](=O)[O-])n1 (stereo not given)    0.3
CCC(C)Sc1nc(O)c(C)c(Cc2ccccc2Cl)n1 (stereo not given)    0.4
CCCCSc1nc(O)c(C)c(Cc2c(Cl)cccc2Cl)n1    1.15
CCC(C)Sc1nc(O)c(C)c(Cc2cccc(F)c2)n1 (stereo not given)    1.5
CCC(C)Sc1nc(O)c(C)c(Cc2c(F)cccc2F)n1 (stereo not given)    0.05

Request body: readout IC50, system Human immunodeficiency virus type 1 reverse transcriptase (Human immunodeficiency virus 1), query CCCCSc1nc(O)cc(Cc2c(Cl)cccc2Cl)n1 . Return the value. 0.5

Request body: readout IC50, system Human immunodeficiency virus type 1 reverse transcriptase (Human immunodeficiency virus 1), query Oc1cc(Cc2c(F)cccc2F)nc(SC2CCCCC2)n1 . Return the value. 0.09
